Biological target: gp120 SHIV SF162 P3 (SHIV SF162 P3)
Assay: single-point ELISA at EC50 conc. of A-1
In this section we review reported ELISA A450 values for a set of binders.
Measured metric: ELISA A450 (A450)

1. 1.35.35-1 (antibody, human IgG1, kappa, V domains shown) VH: QVQLVQSGAEVKKPGASVRVSCKASGYNIRDYFMHWWRQAPGQGLQWVGWINPKTGQPNNPRQFQGRVTMTRHASWDFDTFSFYMDLSRLRSDDTATYFCARQRTDYWDFDVWGQGTMVTVSS VL: DIQMTQSPSSLSASVGDRVTITCQANGYLNWYQQKPGKAPKLLIYDGSNLETGVPSRFSGSRWGQEYTLTISSLQPEDIATYFCQVYEFVGPGTNLDIKR    0.42
2. 1.12.17-1 (antibody, human IgG1, kappa, V domains shown) VH: QVQLLQSGAAVTKPGASVRVSCEASGYNIRDYFIHWVRQAPGQGLQWVGWINPKTGQPNNPRQFQGRVSLTRHASWDFDTFSFYMDLKALRSDDTAVYFCARQRSDYWDFDVWGSGTQVTVSS VL: DIQMTQSPSSLSASVGDTVTITCQANGYLNWYQQRRGKAPKLLIYDGSKLERGVPSRFSGRRWGQEYNLTINNLQPEDIATYFCQVYEFFGPGTRLDLKR    0.75
3. 1.33.35-1 (antibody, human IgG1, kappa, V domains shown) VH: QVQLVQSGAEVKKPGASVRVSCKASGYNIRDYFIHWWRQAPGQGLQWVGWINPKTGQPNNPRQFQGRVTLTRHASWDFDTFSFYMDLKALRSDDTATYFCARQRSDYWDFDVWGSGTQVTVSS VL: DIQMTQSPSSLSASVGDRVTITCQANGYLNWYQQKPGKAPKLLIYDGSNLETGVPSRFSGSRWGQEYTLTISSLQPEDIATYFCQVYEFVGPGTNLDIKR    0.71
4. 1.31.35-1 (antibody, human IgG1, kappa, V domains shown) VH: QVQLVQSGAEVTKPGASVRVSCEASGYNIRDYFIHWWRQAPGQGLQWVGWINPKTGQPNNPRQFQGRVSLTRHASWDFDTFSFYMDLKALRSDDTATYFCARQRSDYWDFDVWGSGTQVTVSS VL: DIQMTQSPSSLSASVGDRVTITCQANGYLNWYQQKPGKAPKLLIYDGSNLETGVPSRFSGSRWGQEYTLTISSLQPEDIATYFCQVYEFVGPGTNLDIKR    0.61
5. 1.14.17-1 (antibody, human IgG1, kappa, V domains shown) VH: QVQLLQSGAAVTKPGASVRVSCEASGYNIRDYFMHWVRQAPGQGLQWVGWINPKTGQPNNPRQFQGRVSLTRHASWDFDTFSAYMDLKALRSDDTAVYFCARQRSDYWDFDVWGSGTQVTVSS VL: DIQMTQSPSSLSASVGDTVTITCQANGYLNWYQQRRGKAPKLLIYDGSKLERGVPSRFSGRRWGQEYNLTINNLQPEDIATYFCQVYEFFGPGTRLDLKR    0.24
